Tested on: human FXN
assay explanation: FXN mRNA expression by qRT-PCR in GM15850 cells after 48 hr compound treatment
Format: cell-based
conditions: Homo sapiens; GM15850 cells, 48 hr incubation, hFXN normalized to hGAPDH; read-out: EC50 WT (nM, 48 hr)
In this section we review reported EC50 values for a set of compounds.
assay endpoint: EC50

>>> measured_result("CC(=O)N1c2ccc(-c3cnc(C(=O)NCCOCCOCCOCCOCCOCCC(=O)NCCCN(C)CCCNC(=O)CCNC(=O)c4nc(NC(=O)CCNC(=O)c5cc(NC(=O)c6nc(NC(=O)CCNC(=O)c7cc(NC(=O)c8nccn8C)cn7C)cn6C)cn5C)cn4C)nc3)cc2N(Cc2ccccc2CO)C[C@@H]1C1CC1 [Compound 30]")
"> 500 nM"
>>> measured_result("Cc1sc2c(c1C)C(c1ccc(Cl)cc1)=N[C@@H](CC(=O)Nc1ccc(CCCOCCOCCOCCOCCOCCC(=O)NCCCN(C)CCCNC(=O)CCNC(=O)c3nc(NC(=O)CCNC(=O)c4cc(NC(=O)c5nc(NC(=O)CCNC(=O)c6cc(NC(=O)c7nccn7C)cn6C)cn5C)cn4C)cn3C)cc1)c1nnc(C)n1-2 [Compound 60]")
"100 to 500 nM"
>>> measured_result("COC[C@@H](C)n1c(C2CCN(CCOCCOCCOCCOCCOCCC(=O)NCCCN(C)CCCNC(=O)CCNC(=O)c3nc(NC(=O)CCNC(=O)c4cc(NC(=O)c5nc(NC(=O)CCNC(=O)c6cc(NC(=O)c7nccn7C)cn6C)cn5C)cn4C)cn3C)CC2)nc2cnc3cc(-c4c(C)noc4C)c(OC)cc3c21 [Compound 10]")
"100 to 500 nM"
>>> measured_result("Cc1sc2c(c1C)C(c1ccc(Cl)cc1)=N[C@@H](CC(=O)Nc1ccc(CCCOCCOCCOCCOCCOCCOCCOCCOCCNC(=O)CCNC(=O)c3nc(NC(=O)CCNC(=O)c4cc(NC(=O)c5nc(NC(=O)CCNC(=O)c6cc(NC(=O)c7nccn7C)cn6C)cn5C)cn4C)cn3C)cc1)c1nnc(C)n1-2 [Compound 63]")
"< 100 nM"
>>> measured_result("Cc1sc2c(c1C)C(c1ccc(Cl)cc1)=N[C@@H](CC(=O)Nc1ccc(OCCOCCOCCOCCOCCOCCC(=O)NCCCOCCCNC(=O)CCNC(=O)c3nc(NC(=O)CCNC(=O)c4cc(NC(=O)c5nc(NC(=O)CCNC(=O)c6cc(NC(=O)c7nccn7C)cn6C)cn5C)cn4C)cn3C)cc1)c1nnc(C)n1-2 [Compound 58]")
"< 100 nM"
>>> measured_result("Cc1sc2c(c1C)C(c1ccc(Cl)cc1)=N[C@@H](CC(=O)Nc1ccc(OCCOCCOCCOCCOCCOCCOCCOCCOCCNC(=O)CCNC(=O)c3cc(NC(=O)c4nc(NC(=O)CCNC(=O)c5cc(NC(=O)c6nc(NC(=O)CCNC(=O)c7cc(NC(=O)c8nccn8C)cn7C)cn6C)cn5C)cn4C)cn3C)cc1)c1nnc(C)n1-2 [Compound 33]")
"100 to 500 nM"
>>> measured_result("Cc1sc2c(c1C)C(c1ccc(Cl)cc1)=N[C@@H](CC(=O)Nc1ccc(OCCOCCOCCOCCN3CCN(CCOCCOCCOCCNC(=O)CCNC(=O)c4nc(NC(=O)CCNC(=O)c5cc(NC(=O)c6nc(NC(=O)CCNC(=O)c7cc(NC(=O)c8nccn8C)cn7C)cn6C)cn5C)cn4C)CC3)cc1)c1nnc(C)n1-2 [Compound 40]")
"< 100 nM"
>>> measured_result("CC(=O)N1c2ccc(-c3ccc(C(=O)NCCOCCOCCOCCOCCOCCOCCOCCOCCNC(=O)CCNC(=O)c4nc(NC(=O)CCNC(=O)c5cc(NC(=O)c6nc(NC(=O)CCNC(=O)c7cc(NC(=O)c8nccn8C)cn7C)cn6C)cn5C)cn4C)cc3)cc2[C@H](Nc2ccc(Cl)cc2)C[C@@H]1C [Compound 36]")
"< 100 nM"
>>> measured_result("CC(=O)N1c2ccc(-c3ccc(C(=O)NCCOCCOCCOCCOCCOCCOCCOCCOCCNC(=O)c4nc(NC(=O)CCNC(=O)c5cc(NC(=O)c6nc(NC(=O)CCNC(=O)c7cc(NC(=O)c8nc(NC(=O)CCNC(=O)COCCOCCOCCOCCOCCOCCOCCOCCOCCOCCOCCOCCOCCOCCOCCN)cn8C)cn7C)cn6C)cn5C)cn4C)cc3)cc2[C@H](Nc2ccc(Cl)cc2)C[C@@H]1C [Compound 89]")
"> 500 nM"
>>> measured_result("COc1ccc2c(c1)C(c1ccc(Cl)cc1)=N[C@@H](CC(=O)Nc1ccc(OCCOCCOCCOCCOCCOCCOCCOCCOCCNC(=O)CCNC(=O)c3nc(NC(=O)CCNC(=O)c4cc(NC(=O)c5nc(NC(=O)CCNC(=O)c6cc(NC(=O)c7nccn7C)cn6C)cn5C)cn4C)cn3C)cc1)c1nnc(C)n1-2 [Compound 25]")
"100 to 500 nM"
>>> measured_result("CC(=O)N1c2ccc(-c3ccc(C(=O)NCCOCCOCCOCCOCCOCCOCCOCCOCCNC(=O)c4cc(NC(=O)c5nc(NC(=O)CCNC(=O)c6cc(NC(=O)c7nc(NC(=O)CCNC(=O)[C@H](CCCNC(=N)N)NC(=O)[C@@H](N)CCCNC(=N)N)cn7C)cn6C)cn5C)cn4C)cc3)cc2[C@H](Nc2ccc(Cl)cc2)C[C@@H]1C [Compound 75]")
"> 500 nM"
>>> measured_result("Cc1sc2c(c1C)C(c1ccc(Cl)cc1)=N[C@@H](CC(=O)Nc1ccc(OCCOCCOCCOCCOCCOCCC(=O)NCCCCCCCNC(=O)CCNC(=O)c3nc(NC(=O)CCNC(=O)c4cc(NC(=O)c5nc(NC(=O)CCNC(=O)c6cc(NC(=O)c7nccn7C)cn6C)cn5C)cn4C)cn3C)cc1)c1nnc(C)n1-2 [Compound 59]")
"< 100 nM"
>>> measured_result("Cc1sc2c(c1C)C(c1ccc(Cl)cc1)=N[C@@H](CC(=O)Nc1ccc(OCCOCCOCCOCCOCCOCCNC(=O)CCNC(=O)c3nc(NC(=O)CCNC(=O)c4cc(NC(=O)c5nc(NC(=O)CCNC(=O)c6cc(NC(=O)c7nccn7C)cn6C)cn5C)cn4C)cn3C)cc1)c1nnc(C)n1-2 [Compound 21]")
"100 to 500 nM"
